- test.name: Single dose PK in healthy subjects (Cohorts 1, 2, S1 and S2), plasma
- Type: in vivo, human
- details: human, plasma, iv, 240 mg, 240 mg single IV infusion, healthy subjects; read-out: Vss Mean
measured.parameter: Vd (L)
Response body: numeric value in L, unit text excluded.

Data point: COC(=O)N1CCC[C@H](NS(C)(=O)=O)[C@@H]1CO[C@H]1CC[C@@H](c2ccccc2)CC1 [Compound A] ; Vd = 97.5

* * *

- test.name: Single dose PK in healthy subjects (Cohorts 1, 2, S1 and S2), plasma
- Type: in vivo, human
- details: human, plasma, intravenous, 7 mg; 0.75 hr After End of Infusion; read-out: Plasma concentration, Minimum
measured.parameter: concentration at 0.75 h after end of infusion (ng/mL)
Your answer is read as ng/mL, so omit the unit and give the number.

# concentration at 0.75 h after end of infusion of COC(=O)N1CCC[C@H](NS(C)(=O)=O)[C@@H]1CO[C@H]1CC[C@@H](c2ccccc2)CC1 [Compound A] = 5.27

* * *

- test.name: Single dose PK in healthy subjects (Cohorts 1, 2, S1 and S2), plasma
- Format: in vivo, human
- details: human, plasma, intravenous, 56 mg; 3 hr; read-out: Plasma concentration, Maximum
measured.parameter: concentration at 3 h (ng/mL)
Give your result in ng/mL as a bare value.

Item: `COC(=O)N1CCC[C@H](NS(C)(=O)=O)[C@@H]1CO[C@H]1CC[C@@H](c2ccccc2)CC1` | concentration at 3 h: 133

* * *

- test.name: Single dose PK in patients with narcolepsy (Cohorts 5, 6 and 7), plasma
- Assay type: in vivo, human
- details: human, plasma, intravenous, 44.8 mg, Cmpd A 44.8 mg; Median; Cohort 5, 6, 7; read-out: Ceoi
measured.parameter: concentration at 9 h (ng/mL)
Express your answer in ng/mL, writing the number without its unit.

Lab note: measured concentration at 9 h of `COC(=O)N1CCC[C@H](NS(C)(=O)=O)[C@@H]1CO[C@H]1CC[C@@H](c2ccccc2)CC1` was 95.2

* * *

- test.name: Single dose PK in healthy subjects (Cohorts 1, 2, S1 and S2), plasma
- Assay type: in vivo, human
- details: human, plasma, intravenous, 7 mg; 2 hr; read-out: Plasma concentration, Q1
measured.parameter: concentration at 2 hr
Field note: include the unit after the figure.

Measured concentration at 2 hr of COC(=O)N1CCC[C@H](NS(C)(=O)=O)[C@@H]1CO[C@H]1CC[C@@H](c2ccccc2)CC1 [Compound A] : 12.8 ng/mL

* * *

- test.name: Single dose PK in healthy subjects (Cohorts 1, 2, S1 and S2), plasma
- Format: in vivo, human
- details: human, plasma, intravenous, 240 mg; 8 hr; read-out: Plasma concentration, Minimum
measured.parameter: concentration at 8 h (ng/mL)
A number alone suffices; assume ng/mL.

# compound `COC(=O)N1CCC[C@H](NS(C)(=O)=O)[C@@H]1CO[C@H]1CC[C@@H](c2ccccc2)CC1` ; its concentration at 8 h = 393

* * *

- test.name: Single dose PK in healthy subjects (Cohorts 1, 2, S1 and S2), plasma
- Type: in vivo, human
- details: human, plasma, iv, 134.4 mg, 134.4 mg single IV infusion, healthy subjects; read-out: Vz Median
measured.parameter: Vd (L)
Numeric only. Scale: L

compound `COC(=O)N1CCC[C@H](NS(C)(=O)=O)[C@@H]1CO[C@H]1CC[C@@H](c2ccccc2)CC1` , Vd observed: 276

* * *

- test.name: Single dose PK in healthy subjects (Cohorts 1, 2, S1 and S2), plasma
- Assay type: in vivo, human
- details: human, plasma, intravenous, 240 mg; 9 hr; read-out: Plasma concentration, Mean
measured.parameter: concentration at 9 h (ng/mL)
Report only the number, with the unit ng/mL understood.

Field concentration at 9 h (entry COC(=O)N1CCC[C@H](NS(C)(=O)=O)[C@@H]1CO[C@H]1CC[C@@H](c2ccccc2)CC1 [Compound A] ) reads 497

* * *

- test.name: Single dose PK in healthy subjects (Cohorts 1, 2, S1 and S2), plasma
- Assay type: in vivo, human
- details: human, plasma, intravenous, 134.4 mg; 6 hr; read-out: Plasma concentration, Maximum
- Description: […]
measured.parameter: concentration at 6 h (ng/mL)
# value in ng/mL; strip the unit string

Record `COC(=O)N1CCC[C@H](NS(C)(=O)=O)[C@@H]1CO[C@H]1CC[C@@H](c2ccccc2)CC1` , field concentration at 6 h: 302

* * *

- test.name: Single dose PK in healthy subjects (Cohorts 1, 2, S1 and S2), plasma
- Assay type: in vivo, human
- details: human, plasma, intravenous, 14 mg; 1.5 hr; read-out: Plasma concentration, Q1
measured.parameter: concentration at 1.5 h (ng/mL)
Response body: numeric value in ng/mL, unit text excluded.

Entry `COC(=O)N1CCC[C@H](NS(C)(=O)=O)[C@@H]1CO[C@H]1CC[C@@H](c2ccccc2)CC1` , concentration at 1.5 h reported as 27.6

* * *

- test.name: Single dose PK in healthy subjects (Cohorts 1, 2, S1 and S2), plasma
- Assay type: in vivo, human
- details: human, plasma, intravenous, 28 mg; 1 hr; read-out: Plasma concentration, Maximum
measured.parameter: concentration at 1 h (ng/mL)
The figure you give is taken to be in ng/mL; do not add the unit.

Record summary for `COC(=O)N1CCC[C@H](NS(C)(=O)=O)[C@@H]1CO[C@H]1CC[C@@H](c2ccccc2)CC1` : reported concentration at 1 h = 51.8

* * *

- test.name: Single dose PK in healthy subjects (Cohorts 1, 2, S1 and S2), plasma
- Assay type: in vivo, human
- details: human, plasma, intravenous, 56 mg; 2 hr; read-out: Plasma concentration, Minimum
measured.parameter: concentration at 2 h (ng/mL)
Number in ng/mL, nothing else.

Lab book: concentration at 2 h of COC(=O)N1CCC[C@H](NS(C)(=O)=O)[C@@H]1CO[C@H]1CC[C@@H](c2ccccc2)CC1 [Compound A] noted as 86.5

* * *

- test.name: Single dose PK in healthy subjects (Cohorts 1, 2, S1 and S2), plasma
- Assay type: in vivo, human
- details: human, plasma, intravenous, 134.4 mg; 0.5 hr; read-out: Plasma concentration, Mean
measured.parameter: concentration at 0.5 h

So for `COC(=O)N1CCC[C@H](NS(C)(=O)=O)[C@@H]1CO[C@H]1CC[C@@H](c2ccccc2)CC1` , the logged concentration at 0.5 h turned out to be 162 ng/mL

* * *

- test.name: Single dose PK in healthy subjects (Cohorts 1, 2, S1 and S2), plasma
- Type: in vivo, human
- details: human, plasma, intravenous, 56 mg; 9 hr; read-out: Plasma concentration, Maximum
measured.parameter: concentration at 9 h (ng/mL)
Report only the number, with the unit ng/mL understood.

For this compound ( COC(=O)N1CCC[C@H](NS(C)(=O)=O)[C@@H]1CO[C@H]1CC[C@@H](c2ccccc2)CC1 [Compound A] ), measured concentration at 9 h is 138

* * *

- test.name: Single dose PK in healthy subjects (Cohorts 1, 2, S1 and S2), plasma
- Assay type: in vivo, human
- details: human, plasma, iv, 134.4 mg, 134.4 mg single IV infusion, healthy subjects; read-out: AUC24 Mean
measured.parameter: AUC (ng·h/mL)
Express the result in ng·h/mL but write the number alone.

Notebook: `COC(=O)N1CCC[C@H](NS(C)(=O)=O)[C@@H]1CO[C@H]1CC[C@@H](c2ccccc2)CC1` , AUC read as 2690

* * *

- test.name: Single dose PK in healthy subjects (Cohorts 1, 2, S1 and S2), plasma
- Type: in vivo, human
- details: human, plasma, intravenous, 180 mg; 8 hr; read-out: Plasma concentration, Minimum
measured.parameter: concentration at 8 hr
Respond with a number, then the unit of measure.

For `COC(=O)N1CCC[C@H](NS(C)(=O)=O)[C@@H]1CO[C@H]1CC[C@@H](c2ccccc2)CC1` the molecule record lists concentration at 8 hr as 275 ng/mL

* * *

- test.name: Single dose PK in healthy subjects (Cohorts 1, 2, S1 and S2), plasma
- Format: in vivo, human
- details: human, plasma, intravenous, 14 mg; 1 hr; read-out: Plasma concentration, Q1
- Excerpt: […]
measured.parameter: concentration at 1 h (ng/mL)
Give the quantity in ng/mL, number only.

Documented concentration at 1 h of `COC(=O)N1CCC[C@H](NS(C)(=O)=O)[C@@H]1CO[C@H]1CC[C@@H](c2ccccc2)CC1` : 22.6

* * *

- test.name: Single dose PK in healthy subjects (Cohorts 1, 2, S1 and S2), plasma
- Type: in vivo, human
- details: human, plasma, iv, 240 mg, 240 mg single IV infusion; 10 hr After End of Infusions; read-out: Plasma Concentration of Cmpd A, Median
measured.parameter: concentration at 10 h after end of infusion

GET /value?item= `COC(=O)N1CCC[C@H](NS(C)(=O)=O)[C@@H]1CO[C@H]1CC[C@@H](c2ccccc2)CC1` &field=concentration at 10 h after end of infusion returns 16.6 ng/mL
